molecular target: T1, human FcRn/b2M (human, UniProt P61769 21-119, biotinylated); assay: SPR off-rate; pH 7.4 vs pH 6.0;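 note: surface plasmon resonance with diluted periplasmic extracts flowed over ligand surfaces, 120 s association and 600–3600 s dissociation at 25 °C, running buffer containing 150 mM NaCl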
T1 construct: bought recombinant biotinylated protein (ACRO FCM-H82W4 or Immunitrack ITF01); also called hFcRn; hFcRn/hb2M
T1 sequence (chain, as listed by the source limits assumed, chain 1 of 2): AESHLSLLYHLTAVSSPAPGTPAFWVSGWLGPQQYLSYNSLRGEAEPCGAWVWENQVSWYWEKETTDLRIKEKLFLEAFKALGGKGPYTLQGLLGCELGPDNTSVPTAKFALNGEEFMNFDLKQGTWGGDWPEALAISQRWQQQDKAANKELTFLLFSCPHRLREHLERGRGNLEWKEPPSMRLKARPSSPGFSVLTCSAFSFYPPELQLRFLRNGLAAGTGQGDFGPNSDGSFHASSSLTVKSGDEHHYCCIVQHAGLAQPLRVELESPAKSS
T1 sequence (P61769 21-119 limits assumed, chain 2 of 2): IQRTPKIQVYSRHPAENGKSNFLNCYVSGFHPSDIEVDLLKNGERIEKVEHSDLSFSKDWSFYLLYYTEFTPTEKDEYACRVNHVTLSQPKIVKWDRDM
READOUT: kd ratio pH 7.4/6.0
// return just the number, without any unit appended

T0263018B11 S52P (VHH, name in Kabat numbering, FLAG3-His6 tagged) VHH: EVQLVESGGGVVQPGGSLRLSCAASGFTFSSYAMYWVRQAPGKGLEWVSAIPSGGGSTDYADSVKGRFTISRDNSKNTLYLQMNSLRPEDTALYYCAADTLYTSLTWYSYWGQGTLVTVSS; 27

Reported kd ratio pH 7.4/6.0 of T0263018B11 T57N (VHH, name in Kabat numbering, FLAG3-His6 tagged) VHH: EVQLVESGGGVVQPGGSLRLSCAASGFTFSSYAMYWVRQAPGKGLEWVSAISSGGGSNDYADSVKGRFTISRDNSKNTLYLQMNSLRPEDTALYYCAADTLYTSLTWYSYWGQGTLVTVSS : 43
